- assay-target: T1, hVEGF-A (human, UniProt P15692-4 27-191, limits assumed)
- T1 construct: also called human VEGF-A; WT
- test-method-notes: KDR-VEGF competition ELISA
pIC50: −log10 of the molar value.
Is pIC50 at least 9? Then Y. If not, N.

Previously resolved entries follow.
• GCDVMQPYWGCEMDFDCLAGCVCHWYNSCG (designed binder, also called L2.9.63.44) [VEGF_CKP9.63.44] = Y
• GCDVMQPYWGCGENFLCLAGCVCHWYNSCG (designed binder, also called L2.9.63.1) [VEGF_CKP9.63.1] = Y
• GCDVMQPYWGCGRDMDCLAGCVCHWYNSCG (designed binder, also called L2.9.63.27) [VEGF_CKP9.63.27] = Y
• GCNIMLPFWGCGRDFECLAGCVCQYYQSCG (designed binder) [VEGF_CKP9.54.90] = Y
• GCDVMQPYWGCGESLSCLAGCVCHWYNSCG (designed binder, also called L2.9.63.69) [VEGF_CKP9.63.69] = N

Next up:
Exam item: For this binder, is measured pIC50 9 or higher? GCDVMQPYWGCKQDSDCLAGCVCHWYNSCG (designed binder, also called EM63) [VEGF_CKP9.63]
Marked response: N
